These measurements were taken from patent US20100041760A1.

# TESTED TARGET: human CRTH2 (Homo sapiens, UniProt Q9Y5Y4)
# Sequence (Q9Y5Y4 1-395): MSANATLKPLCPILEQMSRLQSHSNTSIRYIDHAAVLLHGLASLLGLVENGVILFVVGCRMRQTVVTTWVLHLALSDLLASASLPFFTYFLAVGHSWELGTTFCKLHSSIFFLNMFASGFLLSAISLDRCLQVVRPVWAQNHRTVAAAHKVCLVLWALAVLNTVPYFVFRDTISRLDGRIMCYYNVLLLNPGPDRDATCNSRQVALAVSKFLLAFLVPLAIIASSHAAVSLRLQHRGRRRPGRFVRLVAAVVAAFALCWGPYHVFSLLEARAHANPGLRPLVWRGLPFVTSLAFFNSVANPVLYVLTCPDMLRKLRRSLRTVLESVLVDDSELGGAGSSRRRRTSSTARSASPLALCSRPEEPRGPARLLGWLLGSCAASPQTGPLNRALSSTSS
# EXPERIMENT NOTES: Human CRTH2 Receptor Binding Assay (whole cell, [3H]ramatroban competition)
# Parameters: expressed in transfected cells; host or cells: CHO-K1 (co-transfected with G-alpha16)
# EXPERIMENTAL CONDITIONS: CHO-K1 cells expressing human CRTH2 and G-alpha16; 20 nM [3H]ramatroban; 1 hour, room temperature
READOUT KIND: IC50 (nM)
Quick note: give the figure in nM, leave out the unit.

Which IC50 reading was recorded for the compound O=C(O)COc1cccc2c1CCC[C@H]2NS(=O)(=O)c1cc(Cl)cc(Cl)c1 ?
340

Which IC50 reading was recorded for the compound CC(F)(F)c1cc(C(F)(F)F)cc(S(=O)(=O)N[C@@H]2CCCc3c(OCC(=O)O)cccc32)c1 ?
6

Which IC50 reading was recorded for the compound CC1(c2cc(C(F)(F)F)cc(S(=O)(=O)N[C@@H]3CCCc4c(OCC(=O)O)cccc43)c2)CC1 ?
18.4

Which IC50 reading was recorded for the compound CN([C@@H]1CCCc2c(OCC(=O)O)cccc21)S(=O)(=O)c1cc(F)cc(C(F)(F)F)c1 ?
381

Which IC50 reading was recorded for the compound O=C(O)COc1cccc2c1CCC[C@H]2NS(=O)(=O)c1cc(F)cc(C(F)(F)F)c1 ?
20

Which IC50 reading was recorded for the compound CCOc1cc(C(F)(F)F)cc(S(=O)(=O)N(C)[C@@H]2CCCc3c(OCC(=O)O)cccc32)c1 ?
399

Which IC50 reading was recorded for the compound CC(C)c1cc(C(F)(F)F)cc(S(=O)(=O)N[C@@H]2CCCc3c(OCC(=O)O)cccc32)c1 ?
13.5

Which IC50 reading was recorded for the compound COc1cc(C(F)(F)F)cc(S(=O)(=O)N(C)[C@@H]2CCCc3c(OCC(=O)O)cccc32)c1 ?
110

Which IC50 reading was recorded for the compound CC(C)S(=O)(=O)c1cc(C(F)(F)F)cc(S(=O)(=O)N(C)[C@@H]2CCCc3c(OCC(=O)O)cccc32)c1 ?
3.6
